# Tested on: Sonic hedgehog protein (Shh)
# MEASUREMENT DESCRIPTION: Sonic hedgehog microarray binding compounds – biochemical, small-molecule microarray, 635/667 nm fluorescence, primary screen (AID 1151);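 also: Shh protein binding to compounds spotted on small-molecule microarray slides; score combines spot fluorescence intensity with signal-to-noise across triplicate slides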
# MEASUREMENT CONDITIONS: 635 nm fluorescence, higher = more signal
READOUT: composite z-score
Please state the value as a number alone, without comment.

Task: Output measured composite z-score for this item: C[N+](C)(C)CCCC[C@@H]1NC(=O)[C@@H]2C[C@H](C(=O)NCCCCCCN)[C@H](c3cccc(OCCO)c3)N2C1=O
Result: 0.691

Task: Output measured composite z-score for this item: [N-]=[N+]=Nc1ccccc1C[C@@]1(C(N)=O)N=C(c2ccc(OCCCO)cc2)O[C@@H]1c1ccccc1N=[N+]=[N-]
Result: -0.535

Task: Output measured composite z-score for this item: CN(C)CCCCCCNC(=O)[C@@H]1C[C@@H]2C(=O)N3CCC[C@H]3C(=O)N2[C@@H]1c1cccc(OCCO)c1
Result: 1.54

Task: Output measured composite z-score for this item: CCCNC(=O)[C@@]1(Sc2ccc(C)cc2)CC(=O)N(C2Cc3ccccc3C2)[C@@H]1c1ccc(CO)cc1I
Result: 0.737

Task: Output measured composite z-score for this item: CN(C)c1ccc(C(O)C2C=CC3C(=O)NC(=O)C3N2Nc2ccccn2)cc1 (stereo not given)
Result: 0.862

Task: Output measured composite z-score for this item: NCCCCCCNC(=O)[C@@H]1C[C@@H]2C(=O)N[C@@H](CCCCN)C(=O)N2[C@@H]1c1ccc(O)cc1
Result: 1.62

Task: Output measured composite z-score for this item: COc1ccc(C#Cc2ccc3c(c2)[C@]2(C(=O)N3)[C@H](C(=O)O)[C@H]3C(=O)O[C@H](c4ccccc4)[C@H](c4ccccc4)N3[C@@H]2c2ccc(O)cc2)cc1
Result: -0.454

Task: Output measured composite z-score for this item: COc1ccc([Si](C)(C)[C@@H]2[C@@H](CCO)O[C@]3(C(=O)N(Cc4ccccc4)c4ccc(NC(=O)[C@H](C)O)cc43)[C@H]2C)cc1
Result: 1.95

Task: Output measured composite z-score for this item: C=CCN1C(=O)[C@]2(CCC(=O)OC(C)(C)C)N=C(c3ccc(OCCCO)cc3)O[C@@H]2c2ccccc21
Result: 1.71

Task: Output measured composite z-score for this item: CC(C)C(CO)N1C(=O)[C@@H]2C3C(=O)OCCC/C=C\[C@H]3OC23C=CCN(c2ccc4ccccc4c2)C(=O)[C@@H]13 (stereo not given in full)
Result: 0.41

Task: Output measured composite z-score for this item: C#CCN(Cc1ccccc1Br)[C@H](/C=C/c1ccccc1)[C@@H](O)Cc1ccccc1
Result: -0.866

Task: Output measured composite z-score for this item: OCCCC1=CC(c2ccc(CN3CCCC3)cc2)N(Cc2cc3c(cc2Br)OCO3)CC1 (stereo not given)
Result: 1.04

Task: Output measured composite z-score for this item: CCOC(=O)C[C@H]1[C@H](OC(=O)c2cc3ccccc3oc2=O)[C@@H](NC(=O)CC(C)C)c2cc(OCCCO)ccc2N1C(=O)c1ccc2ccccc2n1
Result: 1.41

Task: Output measured composite z-score for this item: COCCCNC(=O)[C@@H]1c2ccccc2C(=O)N(C(C)C)[C@H]1c1ccc(CO)cc1
Result: 0.499

Task: Output measured composite z-score for this item: CCCC=C(CCC)[C@@H](NS(=O)(=O)CC12CCC(CC1=O)C2(C)C)c1ccc(C(=O)OC)cc1 (stereo not given in full)
Result: 0.31
